# method_summary: compound effects on differentiated 3T3-L1 adipocyte viability – cell-based, 3T3-L1 adipocytes, calcein-AM fluorescence, 48 h, basal, profiling panel (AID 1163); note: test concentration not given here
# assay_context: 3T3-L1 adipocytes viability, higher = more signal
Under this convention, label 1 denotes z-score strictly below 0.4 and label 0 denotes z-score at or above 0.4.

{"structure_string": "COC(=O)[C@@]1(Cc2ccc(OC)cc2)[C@H]2c3cc(C(=O)N(C)C)n(Cc4cc(F)c(F)c(F)c4)c3C[C@H]2CN1C(=O)c1ccccc1", "label": "label 0"}
{"structure_string": "CCOC(=O)C1=CC[C@@H](c2ccc(N(CC)CC)cc2)N(S(=O)(=O)c2ccc(C)cc2)[C@H]1c1ccc([N+](=O)[O-])cc1", "label": "label 1"}
{"structure_string": "C=C[C@H](C)[C@H](OC(=O)Nc1ccc(SC)cc1)c1ccc(O)c2ccccc12", "label": "label 1"}
{"structure_string": "COC(=O)[C@@]1(Cc2ccccc2N=[N+]=[N-])N=C(c2ccc(OCCCO)cc2)O[C@H]1c1ccccc1", "label": "label 1"}
{"structure_string": "C=C(/C(=C/C[C@@H](OC(C)=O)c1ccccc1OCCO)c1cnc2ccccc2c1)C(C)C", "label": "label 0"}
{"structure_string": "COCCOC(=O)N1C(=O)[C@@]2(c3cc(C#Cc4ccc(OC)cc4)ccc31)[C@H](C(N)=O)[C@H]1C(=O)O[C@H](c3ccccc3)[C@H](c3ccccc3)N1[C@@H]2c1ccc(OCCO)cc1", "label": "label 0"}
